Target: Serine/threonine-protein kinase D1 (Homo sapiens, UniProt Q15139)
Sequence (Q15139 whole entry): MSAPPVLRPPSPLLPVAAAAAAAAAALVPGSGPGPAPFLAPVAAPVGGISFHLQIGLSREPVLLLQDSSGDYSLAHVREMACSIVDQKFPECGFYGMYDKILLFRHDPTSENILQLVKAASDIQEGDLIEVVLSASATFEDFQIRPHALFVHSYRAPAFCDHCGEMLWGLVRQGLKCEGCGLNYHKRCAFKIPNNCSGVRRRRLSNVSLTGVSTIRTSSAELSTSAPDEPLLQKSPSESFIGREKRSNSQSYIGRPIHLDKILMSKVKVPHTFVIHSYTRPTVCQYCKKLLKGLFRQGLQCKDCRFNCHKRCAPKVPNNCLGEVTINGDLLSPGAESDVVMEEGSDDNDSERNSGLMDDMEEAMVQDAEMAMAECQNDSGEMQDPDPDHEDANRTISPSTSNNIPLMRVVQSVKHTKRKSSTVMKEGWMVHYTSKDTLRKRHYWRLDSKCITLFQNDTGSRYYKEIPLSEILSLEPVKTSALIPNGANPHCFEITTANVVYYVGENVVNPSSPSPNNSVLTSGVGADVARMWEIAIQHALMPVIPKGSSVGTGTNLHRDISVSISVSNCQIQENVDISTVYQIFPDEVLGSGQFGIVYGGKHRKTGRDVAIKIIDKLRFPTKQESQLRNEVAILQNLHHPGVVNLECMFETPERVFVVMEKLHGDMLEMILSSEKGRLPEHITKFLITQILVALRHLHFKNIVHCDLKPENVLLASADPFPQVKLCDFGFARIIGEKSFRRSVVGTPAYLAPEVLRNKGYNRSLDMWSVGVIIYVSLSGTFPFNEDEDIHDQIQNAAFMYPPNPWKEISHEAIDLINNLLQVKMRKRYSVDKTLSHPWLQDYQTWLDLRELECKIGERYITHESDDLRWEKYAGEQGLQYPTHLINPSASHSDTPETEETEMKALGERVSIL
Assay: fluorescence polarization artefacts, biochemical, 57K campaign, artefact control, dose response (AID 1342)
As shown below, each of these molecules has a reported IC50 value.
assayReadout: IC50

1) COc1ccc(Cn2c(=O)[nH]c3cc(C(=O)NC4CCCC4)ccc3c2=O)cc1; > 50 µM
2) CC1Cc2ccccc2N1c1ncnc(N)c1[N+](=O)[O-] (configuration not stated); > 50 µM
3) O=C(CSc1ccncc1)Nc1ccc2ccccc2c1; > 50 µM
4) O=[N+]([O-])c1ccc(Nc2c3ccccc3nc3ccccc23)cc1; > 50 µM
5) O=C1CSCN1c1cc(Cl)ccc1Cl; > 50 µM
6) Cc1c(C#N)c(N)nc(Cl)c1C#N; > 50 µM
7) COc1ccc(CNC(=O)C2Cc3ccccc3CN2C(=O)c2ccco2)cc1 (configuration not stated); > 50 µM
8) CCOC(=O)c1sc(=NC(=O)CCS(=O)(=O)c2ccccc2)n(C)c1C; > 50 µM
9) COC(=O)c1c(NC(=O)C2C3CCC(C3)C2C(=O)O)sc2c1CCCCC2 (configuration not stated); > 50 µM
10) O=C(Nc1ccccc1C(=O)N1CCCC1)C1COc2ccccc2O1 (configuration not stated); > 50 µM
11) O=C(O)c1cc(C(=O)C2CCCCC2)c[nH]1; > 50 µM
12) CC(N=Nc1ncc(Cl)cc1Cl)c1ccccn1 (configuration not stated); 16.7 µM
